Give Ratio for every item shown.
tested on: Staphylococcus aureus; test: Ratio of MBC to MIC against vancomycin-intermediate resistant Staphylococcus aureus Mu50 ATCC 700699; type: functional
# respond with the number and nothing more

Exercise: Query (compound): CCCCCCCCSSc1ccccn1 ; field requested: Ratio
Key: 8

Exercise: For the compound shown here, CCCCCCCSSc1ccccn1 , give the reported Ratio.
Key: 8

Exercise: # query: Ratio of entry CN[C@H](CC(C)C)C(=O)N[C@H]1C(=O)N[C@@H](CC(N)=O)C(=O)N[C@H]2C(=O)N[C@H]3C(=O)N[C@H](C(=O)N[C@H](C(=O)O)c4cc(O)cc(O)c4-c4cc3ccc4O)[C@H](O)c3ccc(c(Cl)c3)Oc3cc2cc(c3O[C@@H]2O[C@H](CO)[C@@H](O)[C@H](O)[C@H]2O[C@H]2C[C@](C)(N)[C@H](O)[C@H](C)O2)Oc2ccc(cc2Cl)[C@H]1O
Key: 1

Exercise: Consider the compound shown here: CCCCCCCCCSSc1ccccn1 What is its recorded Ratio?
Key: 16

----------
Kindly state diameter of the inhibition zone (DIZ) for each of the entries shown.
system: Staphylococcus epidermidis; test: Antibacterial activity against Staphylococcus epidermidis ATCC 14990 assessed as zone of inhibition by disc diffusion method; assay type: functional
The reply should contain only the number, in mm.

Exercise: Bench note: what diameter of the inhibition zone (DIZ) did c1ccc(CSSc2ccccn2)cc1 show?
Key: 38

Exercise: Find the recorded diameter of the inhibition zone (DIZ) belonging to CCC(C)SSc1ccccn1 (stereo not given) and report it.
Key: 20

Exercise: Can you look up the measured diameter of the inhibition zone (DIZ) of CCCSSc1ccccn1 for me?
Key: 30

Exercise: Param item = CCCCSSc1ccccn1 ; retrieve measured diameter of the inhibition zone (DIZ).
Key: 22

Exercise: Query: diameter of the inhibition zone (DIZ); subject: c1ccc(SSC2CCCC2)nc1
Key: 25

Exercise: Dear colleague, I am looking for the recorded diameter of the inhibition zone (DIZ) of the following molecule: CCCCCCCCCCSSc1ccccn1
Key: 26

Exercise: # query: diameter of the inhibition zone (DIZ) of entry CCCCCCCCCSSc1ccccn1
Key: 41

Exercise: Requested read-out: diameter of the inhibition zone (DIZ). Entry: CSSc1ccccn1
Key: 21

Exercise: Consider the molecule shown here: CCSSc1ccccn1 What is its recorded diameter of the inhibition zone (DIZ)?
Key: 26

Exercise: diameter of the inhibition zone (DIZ) lookup needed for O=C(O)CCSSc1ccccn1 , thanks.
Key: 10

Exercise: Value lookup for diameter of the inhibition zone (DIZ); key = CC(C)SSc1ccccn1
Key: 13

Exercise: # query: diameter of the inhibition zone (DIZ) of entry CN[C@H](CC(C)C)C(=O)N[C@H]1C(=O)N[C@@H](CC(N)=O)C(=O)N[C@H]2C(=O)N[C@H]3C(=O)N[C@H](C(=O)N[C@H](C(=O)O)c4cc(O)cc(O)c4-c4cc3ccc4O)[C@H](O)c3ccc(c(Cl)c3)Oc3cc2cc(c3O[C@@H]2O[C@H](CO)[C@@H](O)[C@H](O)[C@H]2O[C@H]2C[C@](C)(N)[C@H](O)[C@H](C)O2)Oc2ccc(cc2Cl)[C@H]1O
Key: 24

Exercise: Fill blank: measured diameter of the inhibition zone (DIZ) of the molecule CC(C)CSSc1ccccn1 is ____.
Key: 40

Exercise: Entry CC(C)C(C)SSc1ccccn1 (stereo not given) has what diameter of the inhibition zone (DIZ)?
Key: 24

Exercise: Recorded diameter of the inhibition zone (DIZ) of CCCCCCCCSSc1ccccn1 , please.
Key: 46

Exercise: I have this molecule here, c1ccc(SSC2CCCCC2)nc1 , and I need its recorded diameter of the inhibition zone (DIZ).
Key: 24

----------
I'd be grateful if you could share measured MIC50 for these entries.
test system: Staphylococcus aureus; assay: Antibacterial activity against vancomycin-intermediate Staphylococcus aureus clinical isolate 12 assessed as bacterial growth inhibition after 20 hrs by broth microdilution assay; format: functional
Number first, unit second.

Exercise: Record request: MIC50 value, item CCCCCCCCSSc1ccccn1
Key: 12.5 µM

Exercise: Can you share its MIC50? I mean this compound: CCCCCCCSSc1ccccn1
Key: 12.5 µM

Exercise: Form field: reported MIC50 of CCCCCSSc1ccccn1
Key: 50 µM

Exercise: // query MIC50 value for entry CCCCCCCCCSSc1ccccn1
Key: 6.25 µM

Exercise: Which value of MIC50 has been reported for CN[C@H](CC(C)C)C(=O)N[C@H]1C(=O)N[C@@H](CC(N)=O)C(=O)N[C@H]2C(=O)N[C@H]3C(=O)N[C@H](C(=O)N[C@H](C(=O)O)c4cc(O)cc(O)c4-c4cc3ccc4O)[C@H](O)c3ccc(c(Cl)c3)Oc3cc2cc(c3O[C@@H]2O[C@H](CO)[C@@H](O)[C@H](O)[C@H]2O[C@H]2C[C@](C)(N)[C@H](O)[C@H](C)O2)Oc2ccc(cc2Cl)[C@H]1O in the records?
Key: 3.13 µM

Exercise: Reported MIC50, compound CCCCCCSSc1ccccn1 : ____
Key: 50 µM

----------
test system: Staphylococcus aureus; assay: Ratio of MBC to MIC against heterogeneous vancomycin-intermediate Staphylococcus aureus Mu3 ATCC 700698; format: functional
Assignment: determine reported Ratio for the given compounds.

Exercise: Fill blank: measured Ratio of the compound CCCCCCCSSc1ccccn1 is ____.
Key: >4

Exercise: Looking for the measured Ratio of CCCCCCCCSSc1ccccn1 , can you help?
Key: >4

Exercise: Param item = CCCCCCCCCSSc1ccccn1 ; retrieve measured Ratio.
Key: >8

Exercise: Looking for the measured Ratio of CN[C@H](CC(C)C)C(=O)N[C@H]1C(=O)N[C@@H](CC(N)=O)C(=O)N[C@H]2C(=O)N[C@H]3C(=O)N[C@H](C(=O)N[C@H](C(=O)O)c4cc(O)cc(O)c4-c4cc3ccc4O)[C@H](O)c3ccc(c(Cl)c3)Oc3cc2cc(c3O[C@@H]2O[C@H](CO)[C@@H](O)[C@H](O)[C@H]2O[C@H]2C[C@](C)(N)[C@H](O)[C@H](C)O2)Oc2ccc(cc2Cl)[C@H]1O , can you help?
Key: 1

----------
test system: Staphylococcus aureus; test: Antibacterial activity against methicillin-susceptible Staphylococcus aureus ATCC 25923 in presence of 5% v/v serum; format: functional
Assignment: determine reported MIC for the given compounds.
The answer should read as a number with its unit following.

Exercise: Tell me reported MIC for CCCCCCCSSc1ccccn1 , tested with Staphylococcus aureus.
Key: 25 µM

Exercise: State its MIC on Staphylococcus aureus: CCCCCCCCCSSc1ccccn1
Key: 25 µM

Exercise: Param readout = MIC; param system = Staphylococcus aureus; param query = CN[C@H](CC(C)C)C(=O)N[C@H]1C(=O)N[C@@H](CC(N)=O)C(=O)N[C@H]2C(=O)N[C@H]3C(=O)N[C@H](C(=O)N[C@H](C(=O)O)c4cc(O)cc(O)c4-c4cc3ccc4O)[C@H](O)c3ccc(c(Cl)c3)Oc3cc2cc(c3O[C@@H]2O[C@H](CO)[C@@H](O)[C@H](O)[C@H]2O[C@H]2C[C@](C)(N)[C@H](O)[C@H](C)O2)Oc2ccc(cc2Cl)[C@H]1O ; response: value
Key: 0.78 µM

Exercise: Please state recorded MIC (tested on Staphylococcus aureus) of CCCCCCCCSSc1ccccn1
Key: 25 µM

----------
tested on: Staphylococcus aureus; experiment: Antibacterial activity against methicillin-susceptible Staphylococcus aureus ATCC 25923 in presence of 10% v/v serum; assay type: functional
Provide the reported MIC of each item.

Exercise: So what's the measured MIC for this one? CCCCCCCCCSSc1ccccn1
Key: 50 µM

Exercise: Quick one: MIC of CCCCCCCSSc1ccccn1 ?
Key: 25 µM

Exercise: Recorded MIC for CCCCCCCCSSc1ccccn1 , please?
Key: 25 µM

Exercise: Give the measured MIC of CN[C@H](CC(C)C)C(=O)N[C@H]1C(=O)N[C@@H](CC(N)=O)C(=O)N[C@H]2C(=O)N[C@H]3C(=O)N[C@H](C(=O)N[C@H](C(=O)O)c4cc(O)cc(O)c4-c4cc3ccc4O)[C@H](O)c3ccc(c(Cl)c3)Oc3cc2cc(c3O[C@@H]2O[C@H](CO)[C@@H](O)[C@H](O)[C@H]2O[C@H]2C[C@](C)(N)[C@H](O)[C@H](C)O2)Oc2ccc(cc2Cl)[C@H]1O [VANCOMYCIN] .
Key: 0.78 µM

----------
system: Staphylococcus aureus; assay: Antibacterial activity against linezolid-resistant Staphylococcus aureus assessed as bacterial growth inhibition incubated for 20 hrs by broth dilution method; format: functional
Give measured MIC for each item. Keep answers brief.
The reply should contain only the number, in µM.

Exercise: For CCCCCCCCCSSc1ccccn1 , what is its reported MIC?
Key: 25

Exercise: Which measured MIC value corresponds to CCCCCCSSc1ccccn1 ?
Key: 50

Exercise: Which MIC reading was recorded for the compound CCCCCCCCSSc1ccccn1 ?
Key: 25

Exercise: Fill in the blank: the reported MIC of CN[C@H](CC(C)C)C(=O)N[C@H]1C(=O)N[C@@H](CC(N)=O)C(=O)N[C@H]2C(=O)N[C@H]3C(=O)N[C@H](C(=O)N[C@H](C(=O)O)c4cc(O)cc(O)c4-c4cc3ccc4O)[C@H](O)c3ccc(c(Cl)c3)Oc3cc2cc(c3O[C@@H]2O[C@H](CO)[C@@H](O)[C@H](O)[C@H]2O[C@H]2C[C@](C)(N)[C@H](O)[C@H](C)O2)Oc2ccc(cc2Cl)[C@H]1O is ____.
Key: 0.78

Exercise: Looking for the measured MIC of CCCCCCCSSc1ccccn1 , can you help?
Key: 25
